Conditions: mouse, serum, 6 h, 15 µg/ml
Square brackets hold non-standard residues; d marks the D form. Primed or numbered codes have the meaning given here. * marks the point of attachment. Guan″ = guanidino group at the N-terminus, N=C(N)*; tPEG5000 = PEG of 5000 linked via thiol group; Guan = N-guanidino (N-terminal), N=C(N)*; Hyp = O=C(O)[C@@H]1C[C@@H](O)CN1; Tle = CC(C)(C)[C@H](N)C(=O)O; Orn = NCCC[C@H](N)C(=O)O
ASSAY_READOUT: uncleaved peptide remaining after the indicated time (instead of half-life) (%)
Answer in %, number only, no unit symbol.

For orientation, consider the following solved cases.
[[record]]
substance = "Guan-ONO(tPEG^5000-GRSG)RPVYIPRPRPPHPRL-OH ({Guan″}-[Orn]N[Orn]RPVYIPRPRPPHPRL-OH; not fully specified (residue 3)) [Api 301 (tPEG^5000-GRSG)]"
value = 75

[[record]]
substance = "Guan-OO(tPEG^5000-GRSG)NRPVYIPRPRPPHPRL-OH (Guan-[Orn][Orn]NRPVYIPRPRPPHPRL-OH; not fully specified (residue 2)) [Api 300 (tPEG^5000-GRSG)]"
value = 75

[[record]]
substance = "Guan-ONO(tPEG^5000-GARSG)RPVYIPRPRPPHPRL-OH ({Guan″}-[Orn]N[Orn]RPVYIPRPRPPHPRL-OH; not fully specified (residue 3)) [Api 301 (tPEG^5000-GARSG)]"
value = 62


*Q* Fill in reported uncleaved peptide remaining after the indicated time (instead of half-life) for this entry: Guan-OO(tPEG^5000-GARSG)NRPVYIPRPRPPHPRL-OH (Guan-[Orn][Orn]NRPVYIPRPRPPHPRL-OH; not fully specified (residue 2)) [Api 300 (tPEG^5000-GARSG)]
*A* 69

*Q* Fill in reported uncleaved peptide remaining after the indicated time (instead of half-life) for this entry: tPEG^5000-GAR-VDKPPYLPRPRPHypRHypTleYNO-NH2 (tPEG5000-GARVDKPPYLPRPRP[Hyp]R[Hyp][Tle]YN[Orn]-NH2) [tPEG^5000-GAR-Onc 110]
*A* 96

----------
Half-life (t1/2) in serum values, listed per item
Details: mouse
Square brackets hold non-standard residues; d marks the D form. Primed or numbered codes have the meaning given here. * marks the point of attachment. Guan″ = guanidino group at the N-terminus, N=C(N)*; Guan = N-guanidino (N-terminal), N=C(N)*; Orn = NCCC[C@H](N)C(=O)O
Answer in min, number only, no unit symbol.

For orientation, consider the following solved cases.
[[record]]
substance = "Guan-OO(sPEG^750-GRSG)NRPVYIPRPRPPHPRL-OH (Guan-[Orn][Orn]NRPVYIPRPRPPHPRL-OH; not fully specified (residue 2)) [Api 300 (sPEG^750-GRSG)]"
value = 50

[[record]]
substance = "Guan-ONO(sPEG^750-GAARSG)RPVYIPRPRPPHPRL-OH ({Guan″}-[Orn]N[Orn]RPVYIPRPRPPHPRL-OH; not fully specified (residue 3)) [Api 301 (sPEG^750-GAARSG)]"
value = 55

[[record]]
substance = "Guan-OO(sPEG^750-GARSG)NRPVYIPRPRPPHPRL-OH (Guan-[Orn][Orn]NRPVYIPRPRPPHPRL-OH; not fully specified (residue 2)) [Api 300 (sPEG^750-GARSG)]"
value = 35

[[record]]
substance = "Guan-ONO(tPEG^750-GARSG)RPVYIPRPRPPHPRL-OH ({Guan″}-[Orn]N[Orn]RPVYIPRPRPPHPRL-OH; not fully specified (residue 3)) [Api 301 (tPEG^750-GARSG)]"
value = 45

[[record]]
substance = "Guan-ONO(sPEG^750-GRSG)RPVYIPRPRPPHPRL-OH ({Guan″}-[Orn]N[Orn]RPVYIPRPRPPHPRL-OH; not fully specified (residue 3)) [Api 301 (sPEG^750-GRSG)]"
value = 30

[[record]]
substance = "Guan-OO(tPEG^750-GAARSG)NRPVYIPRPRPPHPRL-OH (Guan-[Orn][Orn]NRPVYIPRPRPPHPRL-OH; not fully specified (residue 2)) [Api 300 (tPEG^750-GAARSG)]"
value = 35

[[record]]
substance = "Guan-ONO(tPEG^750-GRSG)RPVYIPRPRPPHPRL-OH (Guan-[Orn]N[Orn]RPVYIPRPRPPHPRL-OH; not fully specified (residue 3)) [Api 301 (tPEG^750-GRSG)]"
value = 55

[[record]]
substance = "Guan-ONO(tPEG^750-GAARSG)RPVYIPRPRPPHPRL-OH ({Guan″}-[Orn]N[Orn]RPVYIPRPRPPHPRL-OH; not fully specified (residue 3)) [Api 301 (tPEG^750-GAARSG)]"
value = 50


*Q* Fill in reported Half-life (t1/2) in serum for this entry: Guan-OO(sPEG^750-GAARSG)NRPVYIPRPRPPHPRL-OH (Guan-[Orn][Orn]NRPVYIPRPRPPHPRL-OH; not fully specified (residue 2)) [Api 300 (sPEG^750-GAARSG)]
*A* 45

*Q* Fill in reported Half-life (t1/2) in serum for this entry: Guan-ONO(sPEG^750-GARSG)RPVYIPRPRPPHPRL-OH ({Guan″}-[Orn]N[Orn]RPVYIPRPRPPHPRL-OH; not fully specified (residue 3)) [Api 301 (sPEG^750-GARSG)]
*A* 45

*Q* Fill in reported Half-life (t1/2) in serum for this entry: Guan-OO(tPEG^750-GRSG)NRPVYIPRPRPPHPRL-OH (Guan-[Orn][Orn]NRPVYIPRPRPPHPRL-OH; not fully specified (residue 2)) [Api 300 (tPEG^750-GRSG)]
*A* 40

*Q* Fill in reported Half-life (t1/2) in serum for this entry: Guan-OO(tPEG^750-GARSG)NRPVYIPRPRPPHPRL-OH (Guan-[Orn][Orn]NRPVYIPRPRPPHPRL-OH; not fully specified (residue 2)) [Api 300 (tPEG^750-GARSG)]
*A* 45
